- System: biotinyl-Ile-oxazolone
- ASSAY COMMENT: self-aminoacylation, catalytic enhancement (BIO) (fold over background); higher = more active; k-Seq, kA / k0A0; sequences stand for … in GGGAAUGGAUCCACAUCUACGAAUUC…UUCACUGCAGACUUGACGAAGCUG
Variants at the floor of the assay were thinned out.
ATTRIBUTE MEASURED: self-aminoacylation
Keep the answer to the number alone.

What does the record list as self-aminoacylation for CUACUUCAGACAAUCGUUCUG [Fam1A.1 aminoacylation ribozyme variant] ?
0.59

Ok, now CCACACUUCAAGGUAUCGGUC [Fam1B.1 aminoacylation ribozyme variant]
0.941

Subsequent entry: UUACUUGAAACAAUCGGUCUG [Fam1A.1 aminoacylation ribozyme variant]
1.15

Then AUUUCUCUGGUCAUCGAGUGA [Fam2.1 aminoacylation ribozyme variant] ?
3.1

====

- System: biotinyl-Phe-oxazolone
- ASSAY COMMENT: self-aminoacylation, catalytic enhancement (BFO) (fold over background); higher = more active; k-Seq, kA / k0A0; sequences stand for … in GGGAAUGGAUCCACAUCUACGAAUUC…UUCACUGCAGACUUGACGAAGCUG
Variants at the floor of the assay were thinned out.
Label scheme, based on self-aminoacylation: LOW = under 2, MEDIUM = from 2 up to 10, HIGH = 10 and over

Kindly identify the class of AUGCACCUAGGUCACCGGGUG [Fam2.2 aminoacylation ribozyme variant] .
HIGH

Also AUUAUCCUGGUCAUCGUGUGA [Fam2.1 aminoacylation ribozyme variant] ?
HIGH

Thanks! And CCACAGUUCAAGCAAUCCGUC [Fam1B.1 aminoacylation ribozyme variant] ?
LOW

Also AUUACGCUCGUCAUCGAGUGA [Fam2.1 aminoacylation ribozyme variant] , if possible.
MEDIUM

Param item: AAGUUGGCUAAUAGUCGCCAG [Fam3.1 aminoacylation ribozyme variant]
MEDIUM

Likewise for CCACUUCAAACGAUCGGUCUG [Fam1A.1 aminoacylation ribozyme variant] ?
MEDIUM

Also need CCACACUUCAACGAAUCGGUC [Fam1B.1 aminoacylation ribozyme variant] , thanks.
HIGH

Likewise for AAUCACCUAGGUCAACGGGUG [Fam2.2 aminoacylation ribozyme variant] ?
HIGH

Can you handle AAGCUUGCUAAUGGUCGCAAG [Fam3.1 aminoacylation ribozyme variant] next?
MEDIUM

# repeat for AAGUUUGCAUAUAGUCGCAAG [Fam3.1 aminoacylation ribozyme variant]
LOW

Okay, and AAGGCUGCUAAUAGUCGCAAG [Fam3.1 aminoacylation ribozyme variant] ?
HIGH

Also need CUGCUUCAAACAAUCGGUCCG [Fam1A.1 aminoacylation ribozyme variant] , thanks.
HIGH

What do you get for AUUACCCUGGUCGUCGAGUGC [Fam2.1 aminoacylation ribozyme variant] ?
LOW

Same read-out for AAUACCCUAGUCAUCGAGUGA [Fam2.1 aminoacylation ribozyme variant] ?
HIGH

Now consider CUACUUCCAACACUCGGUCUG [Fam1A.1 aminoacylation ribozyme variant] and answer again.
LOW

Same thing, different sequence: GAGUUCGCUAAUAGUCGCAAG [Fam3.1 aminoacylation ribozyme variant]
MEDIUM

For CUACUUCAAACAAUCGUUCAG [Fam1A.1 aminoacylation ribozyme variant] then?
LOW

Do the same for CUACUUCAAACAAUCGGUCGU [Fam1A.1 aminoacylation ribozyme variant] please
HIGH

Proceed to AAGUCUGCUAAUAGUCGCAAU [Fam3.1 aminoacylation ribozyme variant]
MEDIUM

Consider next the sequence CUAAUUCAAACAAUCAGUCUG [Fam1A.1 aminoacylation ribozyme variant] in the same way.
MEDIUM

Next record, please: AUUACUCUGGUCGUCGAGUGA [Fam2.1 aminoacylation ribozyme variant]
LOW

Follow-up item: AAGUUUGCUAAUACUCGCUAG [Fam3.1 aminoacylation ribozyme variant]
LOW

// query: CAACUUCAAAAAAUCGGUCUG [Fam1A.1 aminoacylation ribozyme variant]
HIGH

# iterate: AAGUUUGCAAGUAGUCGCAAG [Fam3.1 aminoacylation ribozyme variant]
LOW

Next entry: CCACACUUCACGCAAACGGUC [Fam1B.1 aminoacylation ribozyme variant]
LOW

Note, next up: AUUCCUCUGGUCAUCGAGUGA [Fam2.1 aminoacylation ribozyme variant]
HIGH

Continue with AUUACCCUGGUCAACGAGUGG [Fam2.1 aminoacylation ribozyme variant]
MEDIUM

Note, next up: AAGUUUGCUAAUAGUCGAAUG [Fam3.1 aminoacylation ribozyme variant]
LOW

Moving on to the next sequence: AAGUUUUCUAAUAGUCGCGAG [Fam3.1 aminoacylation ribozyme variant]
MEDIUM

Further, for AUUUACCUAGAUCAUCGGGUG [Fam2.2 aminoacylation ribozyme variant] ?
HIGH

Note, next up: AUUACACUGGUCAUGGAGUGA [Fam2.1 aminoacylation ribozyme variant]
MEDIUM

Please do the same for AUUAGCCUGGUCAUGGAGUGA [Fam2.1 aminoacylation ribozyme variant] as well.
HIGH

Another: AUUCACCUUGAUCAUCGGGUG [Fam2.2 aminoacylation ribozyme variant]
HIGH

Then CCACACUUCAAGCUAUUGGUC [Fam1B.1 aminoacylation ribozyme variant] ?
LOW
